experiment: Brain-to-blood drug concentration ratio of mice; format: in vivo; settings: mouse, plasma, 10 mg/kg PO, 4 h, read-out: Blood drug concentration
For each record, write down the corresponding concentration at 4 h.
Give just the numeric value; ng/mL need not be written.

The compound "CC(F)(F)C(=O)N[C@@H]1CCCC[C@H]1N1Cc2ccc(-c3nnc(C(F)F)o3)cc2S1(=O)=O" showed concentration at 4 h equal to 2500

Input "O=C(N[C@@H]1CCCC[C@H]1N1Cc2ccc(-c3nnc(C(F)F)o3)cc2S1(=O)=O)C(F)F" . Output concentration at 4 h: 2830

----------
assay: Phase I metabolic stability in dog liver microsomes (DLMs); format: in vitro ADME, beagle dogs; conditions: beagle, dog, liver microsomes, pH 7.4; DLM; read-out: CLint (mic)
readout label: microsomal CLint at 1 M

CC(F)(F)C(=O)N[C@@H]1CCCC[C@H]1N1Cc2ccc(-c3nnc(C(F)F)o3)cc2S1(=O)=O [Compound 1] has a reported microsomal CLint at 1 M of < 9.6 µL/min/mg

For O=C(N[C@@H]1CCCC[C@H]1N1Cc2ccc(-c3nnc(C(F)F)o3)cc2S1(=O)=O)C(F)F [Compound 2] the molecule record lists microsomal CLint at 1 M as < 9.6 µL/min/mg
